Origin of measurements: the supplement of paper PMC9112550

System: Escherichia coli TOP10;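 note: peptides expressed intracellularly from a pBAD plasmid library in pooled LB shake-flask culture, induced with 0.3% L-arabinose, DNA abundance read by NGS, three biological replicates, DESeq2 with apeglm shrinkage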
method: shrunken log2 fold change of peptide-encoding DNA abundance (4.5 h post-induction vs induction); higher = less antimicrobial activity (less host growth inhibition)
assay-context: time post-induction: 4.5 h; library: site-saturation at positions 5, 18, 19, 20
Classification field. Basis: shrunken log2 fold change. Definitions: low: < -0.1; intermediate: ≥ -0.1 and < 0.03; high: ≥ 0.03

INSERT INTO measurements (residue_sequence, assigned_category) VALUES
  ('RRIRRRPPRLPRPRPRPLRQPRP', 'high'),
  ('RRIRFRPPRLPRPRPRPDEFPRP', 'low'),
  ('RRIRTRPPRLPRPRPRPKFIPRP', 'low'),
  ('RRIRKRPPRLPRPRPRPEKFPRP', 'intermediate'),
  ('RRIRSRPPRLPRPRPRPCNLPRP', 'low');

-- ask # bin label for "RRIRARPPRLPRPRPRPMIIPRP"
-- reply intermediate

-- ask Form field 'band' for "RRIRLRPPRLPRPRPRPDNAPRP"
-- reply high

-- ask Band for the recorded shrunken log2 fold change of "RRIRSRPPRLPRPRPRPENLPRP" ?
-- reply intermediate

-- ask Band for the recorded shrunken log2 fold change of "RRIRDRPPRLPRPRPRPTDPPRP" ?
-- reply high

-- ask In plain terms, what class is "RRIRVRPPRLPRPRPRPDHIPRP" ?
-- reply low
